Entries annotated with measured pIC50
experimental-target: recombinant Escherichia coli LpxC enzyme (rLpxC) (Escherichia coli, UniProt P0A725)
Sequence (P0A725 whole entry): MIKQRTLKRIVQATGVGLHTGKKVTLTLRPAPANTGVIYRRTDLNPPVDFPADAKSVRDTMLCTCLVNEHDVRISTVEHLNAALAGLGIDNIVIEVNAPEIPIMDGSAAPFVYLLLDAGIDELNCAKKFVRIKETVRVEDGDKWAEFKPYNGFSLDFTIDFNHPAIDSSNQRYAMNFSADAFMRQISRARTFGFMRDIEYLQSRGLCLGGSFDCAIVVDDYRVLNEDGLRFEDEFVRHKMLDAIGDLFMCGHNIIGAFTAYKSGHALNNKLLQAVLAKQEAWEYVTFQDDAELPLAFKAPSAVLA
assay-comment: Inhibition of recombinant Escherichia coli LpxC enzyme activity (LC-MS)
Assay type: biochemical
settings: 37°C, 30 minutes reaction, substrate UDP-3-O (R-hydroxytetradecanoyl)-N-acetylglucosamine
Note on pIC50: it is the negative log10 of concentration, concentration in mol/L.

Recorded results for 2 compounds are shown here.
INSERT INTO assay_data (smiles_code, experimental_target, value_observed) VALUES
  ('CO[C@H]1CCC[C@@H]1C#CC#Cc1ccc(C(=O)N[C@H](C(=O)NO)C(C)(C)N)cc1', 'recombinant Escherichia coli LpxC enzyme (rLpxC) (Escherichia coli, UniProt P0A725)', 8.33),
  ('COC[C@@H]1C[C@H]1C#CC#Cc1ccc(C(=O)N[C@H](C(=O)NO)C(C)(C)N)cc1', 'recombinant Escherichia coli LpxC enzyme (rLpxC) (Escherichia coli, UniProt P0A725)', 8.97);

Request: Give the observed pIC50 of COC[C@H]1C[C@@H]1C#CC#Cc1ccc(C(=O)N[C@H](C(=O)NO)C(C)(C)N)cc1 for recombinant Escherichia coli LpxC enzyme (rLpxC) (Escherichia coli, UniProt P0A725).
Result: 9.07
